System: SARS-CoV-2
test_description: Antiviral activity against SARS coronavirus 2 USA/WA1/2020 infected in Calu-3 cells assessed as reduction in virus-induced cytopathic effect preincubated for 1 hr followed by viral infection and measured after 48 hrs
Type: functional, organism-based
applied_conditions: Severe acute respiratory syndrome coronavirus 2, USA/WA1/2020, Calu-3
log10 of IC50 listing for selected compounds.
property_label: log10 of IC50 (log10 of the value in nM)

1. CCCCCCCCCCCCCC(=O)O[C@H]1[C@@H](O)[C@](C#N)(c2ccc3c(N)ncnn23)O[C@@H]1CO[P@@](=O)(N[C@H](C)C(=O)OCC(CC)CC)Oc1ccccc1 : 2.38
2. CCCCCCCCCCCCCCCC(=O)O[C@@H]1[C@H](O)[C@@H](CO[P@@](=O)(N[C@H](C)C(=O)OCC(CC)CC)Oc2ccccc2)O[C@@]1(C#N)c1ccc2c(N)ncnn12 : 3.56
3. CCSCCCCCCCCCCCC(=O)O[C@H]1[C@@H](O)[C@](C#N)(c2ccc3c(N)ncnn23)O[C@@H]1CO[P@@](=O)(N[C@H](C)C(=O)OCC(CC)CC)Oc1ccccc1 : 2.40
4. CCC(CC)COC(=O)[C@@H](C)N[P@](=O)(OC[C@H]1O[C@@](C#N)(c2ccc3c(N)ncnn23)[C@H](O)[C@@H]1OC(=O)CCCCCCCCCCCN=[N+]=[N-])Oc1ccccc1 : 2.71
5. CCCCCCCCCCCCCC(=O)O[C@@H]1[C@H](O)[C@@H](CO[P@@](=O)(N[C@H](C)C(=O)OCC(CC)CC)Oc2ccccc2)O[C@@]1(C#N)c1ccc2c(N)ncnn12 : 2.46
